meta.source: the supplement of paper PMC4466140

Give measured SPOT peptide array binding signal intensity for each item. Keep answers brief.
molecular target: SpMyo1; assay: SPOT peptide array binding signal intensity (averaged, normalized) (arbitrary units (background-subtracted, floor 0; scale differs between SH3 domains)); higher = stronger binding of the SH3 domain to the peptide

Observe how each entry below is paired with its result.
binder=SLSRRRFSLPSMPNV result=15.5
binder=ALRRRLPVTRSKINW result=10.2
binder=RNNRPVPPPPPMRTT result=662
binder=VRVKKRPLIRPLNSS result=5.5
binder=RRTRLRPPTPLSQLL result=12.1

Please state SPOT peptide array binding signal intensity for every binder in the list that follows.
1. NNFYRPLLRSVLVLL
2. GSKSGPPPRPKKPST

Reply text:
≤ 0
8

Please state SPOT peptide array binding signal intensity for every binder in the list that follows.
1. LFMKGTPEFPKSGFS
2. GKFIPSRPAPKPPSS
3. EEEEEHPPLPARRKS
4. VATSTSPKLPPRGKQ

Reply text:
1: 22.8; 2: 2900; 3: ≤ 0; 4: ≤ 0
